Answer each item with its documented NADPH fluorescence slope.
Target: Voltage-gated potassium channel subunit beta-2 (Rattus norvegicus)
Experiment: enhancers of rat Kvbeta2 NADPH turnover – biochemical, NADPH fluorescence, primary screen (AID 623);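 also: fluorescence intensity change per second fitted from 20 to 320 s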
Settings: Recombinant KvBeta, NADPH fluorescence decrease slope, 10 min; at 10 µM; stronger effect = lower value
Answers are plain numbers.

1. O=C(Nc1ccccc1C(=O)NCC1CCCO1)c1ccco1 (stereo unspecified) = 2.2e-05

Batch: NADPH fluorescence slope for all items listed.
1. COc1ccc(NC(=O)c2oc3ccc(S(=O)(=O)N4CCC5(CC4)OCCO5)cc3c2C)cc1
2. O=C(O)c1cccc(NC(=O)C2C3C=CC(C3)C2C(=O)OCC(F)(F)C(F)F)c1 (stereo unspecified)
3. Cc1cc(C)n2nc(SCC(=O)N(C)c3ccccc3)nc2n1
4. CC(=O)C1=C(O)C(=O)N(Cc2cccnc2)C1c1ccccc1 (stereo unspecified)
5. CCOC(=O)CC(=O)CSc1nc(-c2cccnc2)ccc1C#N
6. CCN(CC)C(=O)Cn1ncc2c1-c1ccccc1OC2

-- reply
1: 4.2e-05; 2: -3.4e-05; 3: -4.2e-05; 4: -2.4e-05; 5: -1.8e-05; 6: -4.7e-05

Batch: NADPH fluorescence slope for all items listed.
1. CCN(CC)C(=O)CSc1nc2ccccc2c(=O)n1CCC(=O)NCc1ccc(F)cc1
2. COc1ccccc1C(=O)NCC(c1cccnc1)N(C)C (stereo unspecified)
3. COc1ccc(CN2C(=O)CN=C2Nc2ccc(C)cc2C)cc1
4. CCOC(=O)N1CCN(Cc2nc3c(c(=O)[nH]c(=O)n3C)n2Cc2cc(C)ccc2C)CC1

-- reply
1: 5.1e-05; 2: -5.3e-05; 3: 6.9e-05; 4: -5.3e-05

----------
Answer each item with its documented slope.
Biological target: Alpha-2C adrenergic receptor (Homo sapiens)
Assay: compounds altering alpha2C-coupled GIRK flux – cell-based, HEK293 alpha2C/GIRK1/2, thallium flux, primary screen (AID 624);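 also: slope of fluorescence ratio to pre-addition baseline per second over 15 to 24 s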
Conditions: thallium flux BTC fluorescence, at 10 µM, actives lie on both sides
One number for each entry.

1) Cc1c(C)n(C(=O)CN2CCN(c3ccccn3)CC2)c2ccccc12 = 0.00497
2) O=C(COc1ccc(S(=O)(=O)NC2CCCCC2)cc1)NCc1ccccn1 = 0.00588
3) Cc1cccc(-n2ncc3c(NCc4cccs4)ncnc32)c1 = 0.00473
4) COc1ccc(N2CCN(C(=O)CCNS(=O)(=O)c3ccc(Br)s3)CC2)cc1 = 0.00529
5) Cc1ccnc(N2CCN(C(=O)CSc3nc4ccccc4nc3N3CCCCC3)CC2)c1 = 0.00385

Batch: slope for all items listed.
1. COC(=O)c1ccccc1NC(=O)c1cnc2sccn2c1=O
2. COc1cccc(NC(=O)N2CCCC2C(=O)Nc2ccc3c(c2)OCO3)c1 (stereo unspecified)

-- reply
0.00479
0.00477

Batch: slope for all items listed.
1. Cc1ccc2c(c1C)NC(C(=O)O)C1CC=CC21 (stereo unspecified)
2. OC(CN1CCCCC1)Cn1c(C(F)(F)F)nc2ccccc21 (stereo unspecified)
3. CN(C)Cc1cn(CCC(=O)O)c2ccccc12
4. O=C(CSc1nnc(-c2ccccc2)o1)NC1CCCCC1

-- reply
1. 0.00434
2. 0.00651
3. 0.00704
4. 0.0067

----------
Answer each item with its documented nuclei count.
Test: reduction of polyQ htt aggregates in cells – imaging, exon1htt(103Q)mCFP cells, high-content imaging, primary screen (AID 483);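 also: compound exposure lasted 3 days before fixation; percent of the per-plate median nuclei count of sample wells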
Details: exon1htt(103Q)mCFP cell line, aggregate imaging, at 2 µM; measured here: cell count, toxicity
One number for each entry, in %.

1. COc1ccc(N2CCN(c3ncnc4c3cnn4-c3ccc(C)cc3C)CC2)cc1 = 117
2. Cc1cc(NCCN(C)C)n2nc(-c3cccs3)cc2n1 = 102
3. O=C(CN1CCN(c2nc(-c3ccccc3)cs2)CC1)Nc1ccc2c(c1)OCO2 = 106
4. CCn1c(SCC(=O)Nc2ccccc2F)nc2c(c1=O)SC(C)C2 (configuration not stated) = 104
5. O=C(O)c1oc2ccccc2c1-n1cccc1 = 110
6. COc1cc(CC(=O)Oc2ccc3c(c2)OCO3)cc(OC)c1OC = 112
7. COC(=O)/C=c1\sc2ncnn2c1=O = 111
8. CC1CCCN(c2ccc(C(=O)NCc3cccs3)cn2)C1 (configuration not stated) = 112
9. CCc1cc2c(NCCC(=O)O)nc(C)nc2s1 = 79
10. Cc1[nH]c(=O)[nH]c(=O)c1S(=O)(=O)N(C)Cc1ccccc1 = 110

Batch: nuclei count for all items listed.
1. Cc1csc2nc3ccccc3c(=O)n12
2. O=C(Cn1c(C(=O)NCC2CCCO2)cc2sccc21)c1ccccc1 (configuration not stated)

-- reply
1. 97.6
2. 80
